Reported IC50 values for a set of compounds
- Target or test system: Voltage-gated inwardly rectifying potassium channel KCNH2 (Homo sapiens)
- Sequence (Q12809 whole entry): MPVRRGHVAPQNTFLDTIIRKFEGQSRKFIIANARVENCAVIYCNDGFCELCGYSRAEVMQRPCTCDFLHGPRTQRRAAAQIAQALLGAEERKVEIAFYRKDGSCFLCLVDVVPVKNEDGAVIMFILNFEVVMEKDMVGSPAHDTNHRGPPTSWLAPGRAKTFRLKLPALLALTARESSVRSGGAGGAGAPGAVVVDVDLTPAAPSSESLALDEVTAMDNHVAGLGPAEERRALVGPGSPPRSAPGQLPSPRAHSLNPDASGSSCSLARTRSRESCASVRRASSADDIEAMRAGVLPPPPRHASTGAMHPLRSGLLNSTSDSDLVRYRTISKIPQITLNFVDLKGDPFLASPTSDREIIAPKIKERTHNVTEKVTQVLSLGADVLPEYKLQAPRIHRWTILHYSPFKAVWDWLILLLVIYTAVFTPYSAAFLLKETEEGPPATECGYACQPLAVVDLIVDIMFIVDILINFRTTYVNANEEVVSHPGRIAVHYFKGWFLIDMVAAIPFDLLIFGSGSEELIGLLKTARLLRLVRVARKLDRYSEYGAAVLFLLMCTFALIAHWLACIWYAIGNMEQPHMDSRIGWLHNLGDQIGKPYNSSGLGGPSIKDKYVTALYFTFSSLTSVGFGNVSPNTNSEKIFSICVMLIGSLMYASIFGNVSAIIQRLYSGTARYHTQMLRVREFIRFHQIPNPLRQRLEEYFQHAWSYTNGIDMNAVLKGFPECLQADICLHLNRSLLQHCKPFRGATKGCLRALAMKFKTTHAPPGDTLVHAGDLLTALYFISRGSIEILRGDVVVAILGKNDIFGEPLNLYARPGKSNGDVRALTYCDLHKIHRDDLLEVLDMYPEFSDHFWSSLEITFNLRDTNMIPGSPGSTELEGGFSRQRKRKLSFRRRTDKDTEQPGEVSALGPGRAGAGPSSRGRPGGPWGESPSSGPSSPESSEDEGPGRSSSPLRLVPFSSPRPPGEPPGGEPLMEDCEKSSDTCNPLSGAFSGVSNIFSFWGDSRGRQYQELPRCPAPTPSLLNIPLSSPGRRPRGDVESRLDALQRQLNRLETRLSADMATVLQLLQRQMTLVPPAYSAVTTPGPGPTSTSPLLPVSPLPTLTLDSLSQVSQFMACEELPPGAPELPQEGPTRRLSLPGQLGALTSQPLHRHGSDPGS
- Assay notes: Inhibition of human ERG expressed in CHO cells at -80 mV holding potential measured for 7 to 10 mins by automated patch clamp method

Structure notation: Clc1ccc2c(c1)CC1(Cc3nnc(N4CCN(c5cccc6c5COC6)CC4)n3-2)OCCO1
Target or test system: Voltage-gated inwardly rectifying potassium channel KCNH2 (Homo sapiens)
IC50: 7.9 µM
//
Structure notation: Cc1nc2c([nH]1)-c1ccccc1N(C(=O)c1ccc(NC(=O)c3ccccc3-c3ccccc3)cc1)CC2
Target or test system: Voltage-gated inwardly rectifying potassium channel KCNH2 (Homo sapiens)
IC50: > 5 µM
//
Structure notation: Clc1ccc2c(c1)CC1(Cc3nnc(N4CCN(c5cccc6c5OCC6)CC4)n3-2)OCCO1
Target or test system: Voltage-gated inwardly rectifying potassium channel KCNH2 (Homo sapiens)
IC50: > 30 µM
//
Structure notation: Clc1ccc2c(c1)CC1(Cc3nnc(N4CCN(c5cccc6c5CCO6)CC4)n3-2)OCCO1
Target or test system: Voltage-gated inwardly rectifying potassium channel KCNH2 (Homo sapiens)
IC50: 10 µM
//
Structure notation: Cc1cccc(N2CCN(c3nnc4n3-c3ccc(Cl)cc3CC3(C4)OCCO3)CC2)c1C
Target or test system: Voltage-gated inwardly rectifying potassium channel KCNH2 (Homo sapiens)
IC50: 10 µM
//
Structure notation: Clc1ccc2c(c1)CC1(Cc3nnc([C@H]4CC[C@H](Oc5ccccn5)CC4)n3-2)OCCO1
Target or test system: Voltage-gated inwardly rectifying potassium channel KCNH2 (Homo sapiens)
IC50: 9.1 µM
//
Structure notation: COC1(c2ccccc2)CCN(c2nnc3n2-c2ccc(Cl)cc2CC2(C3)OCCO2)CC1
Target or test system: Voltage-gated inwardly rectifying potassium channel KCNH2 (Homo sapiens)
IC50: 11 µM
//
Structure notation: Clc1ccc2c(c1)CC1(Cc3nnc(N4CCN(c5cccc6c5OCO6)CC4)n3-2)OCCO1
Target or test system: Voltage-gated inwardly rectifying potassium channel KCNH2 (Homo sapiens)
IC50: 11 µM
//
Structure notation: Clc1ccc2c(c1)CC1(Cc3nnc(N4CCC(Oc5ccccn5)CC4)n3-2)OCCO1
Target or test system: Voltage-gated inwardly rectifying potassium channel KCNH2 (Homo sapiens)
IC50: 8.2 µM

# credit: ChEMBL document CHEMBL6074677
